study_target: Phosphatidylinositol 4,5-bisphosphate 3-kinase catalytic subunit gamma isoform (Homo sapiens, UniProt P48736)
Sequence (P48736 whole entry, looked up, canonical isoform): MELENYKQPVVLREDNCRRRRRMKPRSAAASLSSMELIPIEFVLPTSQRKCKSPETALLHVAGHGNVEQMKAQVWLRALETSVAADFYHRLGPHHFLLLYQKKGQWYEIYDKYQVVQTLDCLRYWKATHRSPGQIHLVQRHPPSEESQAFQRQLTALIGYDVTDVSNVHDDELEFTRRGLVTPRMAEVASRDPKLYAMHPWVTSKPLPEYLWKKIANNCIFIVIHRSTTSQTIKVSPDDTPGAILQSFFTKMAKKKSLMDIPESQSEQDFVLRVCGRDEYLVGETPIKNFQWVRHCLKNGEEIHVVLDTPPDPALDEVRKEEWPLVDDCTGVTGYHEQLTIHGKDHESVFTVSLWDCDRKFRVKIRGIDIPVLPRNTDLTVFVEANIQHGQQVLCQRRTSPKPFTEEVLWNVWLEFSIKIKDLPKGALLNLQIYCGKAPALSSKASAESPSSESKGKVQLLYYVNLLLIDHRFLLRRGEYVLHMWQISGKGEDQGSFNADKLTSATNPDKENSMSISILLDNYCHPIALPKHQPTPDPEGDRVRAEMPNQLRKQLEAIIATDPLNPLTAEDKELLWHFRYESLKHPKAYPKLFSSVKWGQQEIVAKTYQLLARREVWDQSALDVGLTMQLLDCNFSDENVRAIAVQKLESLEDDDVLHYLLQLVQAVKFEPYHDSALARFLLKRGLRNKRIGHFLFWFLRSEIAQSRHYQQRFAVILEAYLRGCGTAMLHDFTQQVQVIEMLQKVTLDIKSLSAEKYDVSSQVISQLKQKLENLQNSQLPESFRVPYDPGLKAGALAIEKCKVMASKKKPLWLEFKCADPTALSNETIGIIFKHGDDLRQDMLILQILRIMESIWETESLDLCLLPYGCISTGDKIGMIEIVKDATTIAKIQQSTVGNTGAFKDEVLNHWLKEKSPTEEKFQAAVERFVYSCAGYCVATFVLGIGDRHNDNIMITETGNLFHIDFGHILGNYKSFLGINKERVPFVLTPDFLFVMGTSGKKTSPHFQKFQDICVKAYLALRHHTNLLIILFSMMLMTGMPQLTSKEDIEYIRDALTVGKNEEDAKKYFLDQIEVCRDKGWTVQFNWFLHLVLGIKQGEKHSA
measurement_description: Antagonist activity at PI3Kgamma (unknown origin) assessed as inhibition rate at 20 nM using PIP2 as substrate in presence of ATP incubated for 30 to 60 mins by ADP-glo based luminescence assay relative to control
applied_conditions: time 30-60 min
Entries and their inhibition
measurement_label: inhibition

molecule="CC(NC(=O)c1c(N)nn2cccnc12)c1cc2cccc(C#Cc3ccccc3)c2c(=O)n1-c1ccccc1 (stereo not drawn)" measurement_label=inhibition result=27%
molecule="CC(NC(=O)c1c(N)nn2cccnc12)c1cc2cccc(C#Cc3ccc(C(F)(F)F)cc3)c2c(=O)n1-c1ccccc1 (stereo not drawn)" measurement_label=inhibition result=37%
molecule="CC(NC(=O)c1cnn2cccnc12)c1cc2cccc(C#Cc3ccc(C(F)(F)F)cc3)c2c(=O)n1-c1ccccc1 (stereo not drawn)" measurement_label=inhibition result=27%
molecule="CC(NC(=O)c1cncc(N2CCOCC2)n1)c1cc2cccc(Cl)c2c(=O)n1-c1ccccc1 (stereo not drawn)" measurement_label=inhibition result=13%
molecule="CC(NC(=O)c1c(N)nn2cccnc12)c1cc2cccc(C#CC3CC3)c2c(=O)n1-c1ccccc1 (stereo not drawn)" measurement_label=inhibition result=33%
molecule="CC(NC(=O)c1c(N)nn2cccnc12)c1cc2cccc(C#Cc3ccc(N(C)C)cc3)c2c(=O)n1-c1ccccc1 (stereo not drawn)" measurement_label=inhibition result=28%
molecule="CC(NC(=O)c1c(N)nn2cccnc12)c1cc2cccc(C#CCN)c2c(=O)n1-c1ccccc1 (stereo not drawn)" measurement_label=inhibition result=38%
molecule="CC(NC(=O)c1cnn2cccnc12)c1cc2cccc(C#Cc3ccccc3)c2c(=O)n1-c1ccccc1 (stereo not drawn)" measurement_label=inhibition result=24%

* * *

Entries and their inhibition
study_target: Phosphatidylinositol 4,5-bisphosphate 3-kinase catalytic subunit gamma isoform (Homo sapiens, UniProt P48736)
measurement_description: Antagonist activity at PI3Kgamma (unknown origin) assessed as inhibition rate at 20 nM using PIP2 as substrate in presence of ATP incubated for 30 to 60 mins by ADP-glo based luminescence assay relative to control
applied_conditions: time 30-60 min
measurement_label: inhibition (%)

compound="CC(NC(=O)c1cncc2ccccc12)c1cc2cccc(Cl)c2c(=O)n1-c1ccccc1 (stereo unspecified)" unit_descriptor=% numeric_readout=2
compound="CC(NC(=O)c1ccncc1N)c1cc2cccc(Cl)c2c(=O)n1-c1ccccc1 (stereo unspecified)" unit_descriptor=% numeric_readout=33
compound="CCCc1ccc(C#Cc2cccc3cc(C(C)NC(=O)c4c(N)nn5cccnc45)n(-c4ccccc4)c(=O)c23)cc1 (stereo unspecified)" unit_descriptor=% numeric_readout=22
compound=C[C@H](Nc1ncnc2nc[nH]c12)c1cc2cccc(Cl)c2c(=O)n1-c1ccccc1 unit_descriptor=% numeric_readout=37
compound="CC(NC(=O)c1ccc2occc2c1)c1cc2cccc(Cl)c2c(=O)n1-c1ccccc1 (stereo unspecified)" unit_descriptor=% numeric_readout=11
compound="CCCc1ccc(C#Cc2cccc3cc(C(C)Nc4ncnc5[nH]cnc45)n(-c4ccccc4)c(=O)c23)cc1 (stereo unspecified)" unit_descriptor=% numeric_readout=13

* * *

Test system: HepG2
measurement_description: Cytotoxicity against human HepG2 cells assessed as reduction in cell viability incubated for 24 hrs by CCK-8 assay
Format: functional, cell-based
applied_conditions: HepG2, 24 h
pIC50: −log10 of the molar value.
Entries and their pIC50
measurement_label: pIC50

compound=C[C@H](Nc1ncnc2nc[nH]c12)c1cc2cccc(Cl)c2c(=O)n1-c1ccccc1 result="< 4.00"
compound="COc1ccc(C#Cc2cccc3cc(C(C)Nc4ncnc5[nH]cnc45)n(-c4ccccc4)c(=O)c23)cc1 (configuration not stated)" result="< 4.00"
